The reported numbers originate from patent US9481648B2.

test system: TNBS-induced colitis in BDF1 mice; assay: TNBS-induced colitis in mice (in vivo iv); set-up: species or system mouse; conditions: TNBS-induced colitis, mice, conducted over 2 days
Readout type: activity in in vivo model of colonic inflammation (histopathology analysis)

Qu. Which activity in in vivo model of colonic inflammation (histopathology analysis) reading was recorded for the molecule COc1c(NC(=O)Nc2ccc(Oc3ccnc(Nc4ccccc4)c3)c3ccccc23)cc(C(C)(C)C)cc1C(=O)NC1COC1 ?
Ans. substantial activity

Qu. // lookup activity in in vivo model of colonic inflammation (histopathology analysis) for COc1cc(Nc2cc(Oc3ccc(NC(=O)Nc4cc(C(C)(C)C)cc(NS(C)(=O)=O)c4OC)c4ccccc34)ccn2)cc(C(=O)NCCN2CCN(C)CC2)c1
Ans. substantial activity

Qu. Dear colleague, I am looking for the recorded activity in in vivo model of colonic inflammation (histopathology analysis) of the following molecule: C#Cc1cc(Nc2nccc(Oc3ccc(NC(=O)Nc4cc(C(C)(C)C)cc(NS(C)(=O)=O)c4OC)c4ccccc34)n2)cc(C(=O)NCCOCCOCCOC)c1
Ans. substantial activity

* * *

assay: Plasma pharmacokinetics in rats, single intravenous or oral administration; format: in vivo, rat (male Wistar); details: male, Wistar, rat, plasma, po, 5 mg/kg; read-out: Median plasma concentration
Readout type: concentration at 6 h (ng/mL)
The reply should be a number in ng/mL, with the unit left off.

Qu. Would you kindly share the measured concentration at 6 h for COc1c(NC(=O)Nc2ccc(Oc3ccnc(Nc4ccccc4)c3)c3ccccc23)cc(C(C)(C)C)cc1C(=O)NC1COC1 ?
Ans. 2

* * *

Parameter: Tmax. Scope: all listed entries.
experiment: Plasma pharmacokinetics in rats, single intravenous or oral administration; type: in vivo, rat (male Wistar); conditions: male, Wistar, rat, plasma, po, 5 mg/kg
// units = h; emit number, no label

Qu. Tmax for COCCOCCOCCOc1cc(Nc2nccc(Oc3ccc(NC(=O)Nc4cc(C(C)(C)C)cc(NS(C)(=O)=O)c4OC)c4ccccc34)n2)cc(OC)c1 ?
Ans. 0.5

// below: Tmax requested for another compound
Qu. Name the recorded Tmax for COc1c(NC(=O)Nc2ccc(Oc3ccnc(Nc4ccccc4)c3)c3ccccc23)cc(C(C)(C)C)cc1C(=O)NC1COC1 .
Ans. 5.3

* * *

In what follows, each item is paired with its pIC50 for GSK 3α (Homo sapiens (Human)).
// pIC50 here means minus log10 of the molar concentration (mol/L)

Qu. Recorded pIC50 for COCCOCCOCCOc1cc(Nc2nccc(Oc3ccc(NC(=O)Nc4cc(C(C)(C)C)cc(C(=O)N(C)C)c4OC)c4ccccc34)n2)cc(OC)c1 , please?
Ans. 5.35

New cases:
Qu. For CCNC(=O)c1cc(C(C)(C)C)cc(NC(=O)Nc2ccc(Oc3ccnc(Nc4cc(OC)cc(OCCOCCOCCOC)c4)n3)c3ccccc23)c1OC , what is its reported pIC50?
Ans. 6.35

Qu. Quick one: pIC50 of COCCOCCOCCOc1cc(Nc2nccc(Oc3ccc(NC(=O)Nc4cc(C(C)(C)C)cc5nc(C)oc45)c4ccccc34)n2)cc(OC)c1 ?
Ans. 5.84

Qu. Would you mind telling me what pIC50 value was observed for COc1cc(Nc2nccc(Oc3ccc(NC(=O)Nc4cc(C(C)(C)C)cc(NS(C)(=O)=O)c4OC)c4ccccc34)n2)cc(OCCOCCC(=O)O)c1 ?
Ans. 6.87

Qu. For the compound COCCOCCOCCOc1cc(Nc2nccc(Oc3ccc(NC(=O)Nc4cc(NS(C)(=O)=O)cc(C(C)(C)C)c4)c4ccccc34)n2)cc(OC)c1 , what pIC50 is on record?
Ans. 6.17

Qu. Which pIC50 value belongs to COCCOCCOCCOc1cc(Nc2nccc(Oc3ccc(NC(=O)Nc4cc(C(C)(C)C)cc(C(=O)NCC(=O)O)c4OC)c4ccccc34)n2)cc(OC)c1 ?
Ans. 7.10
